# test_target: ERα (Homo sapiens, UniProt P03372)
# Sequence (P03372 whole entry): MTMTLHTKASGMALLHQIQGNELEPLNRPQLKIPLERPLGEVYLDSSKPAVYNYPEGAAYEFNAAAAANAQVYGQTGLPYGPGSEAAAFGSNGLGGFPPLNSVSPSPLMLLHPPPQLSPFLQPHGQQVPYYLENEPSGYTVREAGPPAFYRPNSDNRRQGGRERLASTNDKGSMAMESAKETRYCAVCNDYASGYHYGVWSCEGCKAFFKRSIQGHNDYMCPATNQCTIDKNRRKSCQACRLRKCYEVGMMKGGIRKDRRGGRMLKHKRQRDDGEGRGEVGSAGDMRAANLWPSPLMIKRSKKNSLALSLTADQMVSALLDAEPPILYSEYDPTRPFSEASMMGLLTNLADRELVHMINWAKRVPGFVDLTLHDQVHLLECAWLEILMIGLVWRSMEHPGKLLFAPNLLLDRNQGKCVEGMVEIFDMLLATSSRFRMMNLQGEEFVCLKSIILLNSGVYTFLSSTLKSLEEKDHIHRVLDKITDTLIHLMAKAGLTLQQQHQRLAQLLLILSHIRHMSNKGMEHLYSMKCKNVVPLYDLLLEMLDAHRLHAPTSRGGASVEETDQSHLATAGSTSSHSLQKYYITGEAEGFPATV
# measurement_protocol: Competitive binding against [6,7-3H(N)]estradiol in COS-1 cells transfected with human ERα
# protocol_conditions: ERα IC50, COS-1 cells, competition against labeled E2, 2 hours at 37° C.
pIC50: −log10 of the molar value.
Class Condition met: pIC50 at least 6. Class Condition not met: pIC50 below 6.

1. c1ccc(CCCC2=NOC(c3ccccc3)C2)cc1 (single isomer, unassigned) [113a] = Condition not met
2. CC1(c2ccccc2)CC(CCCc2ccc(O)cc2)=NO1 (single isomer, unassigned) [90a] = Condition met
3. Oc1ccc(CCC2=NOC(Cc3ccccc3)C2)cc1 (single isomer, unassigned) [93a] = Condition met
4. c1ccc(CCCC2=NOC(c3ccccc3)C2)cc1 (single isomer, unassigned) [113b] = Condition not met
5. Oc1ccc(CCCC2=NOC(c3ccccc3)C2)cc1 (single isomer, unassigned) [88b] = Condition met

-- ask Record CC1(c2ccccc2)CC(CCCc2ccc(O)cc2)=NO1 (single isomer, unassigned) [90b] ; criterion: pIC50 no lower than 6. Met?
-- reply Condition not met

-- ask Record Oc1ccc(CCC2=NOC(Cc3ccccc3)C2)cc1 (single isomer, unassigned) [93b] ; criterion: pIC50 no lower than 6. Met?
-- reply Condition not met

-- ask Record Oc1ccc(CCCC2=NOC(c3ccccc3)C2)cc1 (single isomer, unassigned) [88a] ; criterion: pIC50 no lower than 6. Met?
-- reply Condition met
